# test target: MCR4 (human, UniProt P32245 1-332)
# Sequence (P32245 whole entry): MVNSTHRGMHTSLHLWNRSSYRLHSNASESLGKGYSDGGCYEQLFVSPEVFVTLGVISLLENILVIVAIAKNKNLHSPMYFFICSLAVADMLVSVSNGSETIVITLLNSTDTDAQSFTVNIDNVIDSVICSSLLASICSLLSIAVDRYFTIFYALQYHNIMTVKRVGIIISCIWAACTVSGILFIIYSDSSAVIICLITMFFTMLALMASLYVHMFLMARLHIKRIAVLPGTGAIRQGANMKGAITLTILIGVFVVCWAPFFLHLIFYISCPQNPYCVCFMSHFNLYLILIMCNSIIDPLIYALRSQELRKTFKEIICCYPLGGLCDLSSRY
# assay method text: cell-based or functional assay
Square brackets hold non-standard residues; d marks the D form. Ends that are not written are not given here. Nle = CCCC[C@H](N)C(=O)O; βAla = NCCC(=O)O
# cutoff 30 nM applies to MCR4 EC50 (nM); cAMP production, LANCE cAMP assay, CHO-MCR4 cells, cell pool B; >= gives true, < gives false

Below, 4 binders whose answers are already recorded.
- binder: "ACTH1-24-natural N-terminal spacer-NDP-α-MSH (ends and bridges not checked) peptide: SYSMEHFRWGKPVGKKRRPVKVYPPLPEGGPEPRSDGAKPGPREGKRSYS[Nle]EH[dF]RWGKPV"
  label value: "false"
- binder: "[Nle]EH[dF]RW[βAla]G[βAla][Nle]EH[dF]RW [NDP-ACTH4-9-βAla-G-βAla-NDP-ACTH4-9]"
  label value: "false"
- binder: "SYSMEHFRWGKPVGKKRRPVKVYPGGGGSRRKRSYSMEHFRWGKPV [ACTH1-24-proconvertase-α-MSH]"
  label value: "false"
- binder: "SYSMEHFRWGKPVGKKRRPVKVYPNGAEDESAEAFPLEFKR [ACTH1-39]"
  label value: "true"

With those in mind, consider the next binder.
Q) Does MCR4 EC50 (nM); cAMP production, LANCE cAMP assay, CHO-MCR4 cells, cell pool B meet or surpass 30 nM for ACTH1-24-natural C-terminal spacer-NDP-α-MSH (ends and bridges not checked) peptide: SYSMEHFRWGKPVGKKRRPVKVYPELTGQRLREGDGPDGPADDGAGASYS[Nle]EH[dF]RWGKPV ?
A) false
